Biological target: T1, natriuretic peptide receptor-B (human)
T1 chain: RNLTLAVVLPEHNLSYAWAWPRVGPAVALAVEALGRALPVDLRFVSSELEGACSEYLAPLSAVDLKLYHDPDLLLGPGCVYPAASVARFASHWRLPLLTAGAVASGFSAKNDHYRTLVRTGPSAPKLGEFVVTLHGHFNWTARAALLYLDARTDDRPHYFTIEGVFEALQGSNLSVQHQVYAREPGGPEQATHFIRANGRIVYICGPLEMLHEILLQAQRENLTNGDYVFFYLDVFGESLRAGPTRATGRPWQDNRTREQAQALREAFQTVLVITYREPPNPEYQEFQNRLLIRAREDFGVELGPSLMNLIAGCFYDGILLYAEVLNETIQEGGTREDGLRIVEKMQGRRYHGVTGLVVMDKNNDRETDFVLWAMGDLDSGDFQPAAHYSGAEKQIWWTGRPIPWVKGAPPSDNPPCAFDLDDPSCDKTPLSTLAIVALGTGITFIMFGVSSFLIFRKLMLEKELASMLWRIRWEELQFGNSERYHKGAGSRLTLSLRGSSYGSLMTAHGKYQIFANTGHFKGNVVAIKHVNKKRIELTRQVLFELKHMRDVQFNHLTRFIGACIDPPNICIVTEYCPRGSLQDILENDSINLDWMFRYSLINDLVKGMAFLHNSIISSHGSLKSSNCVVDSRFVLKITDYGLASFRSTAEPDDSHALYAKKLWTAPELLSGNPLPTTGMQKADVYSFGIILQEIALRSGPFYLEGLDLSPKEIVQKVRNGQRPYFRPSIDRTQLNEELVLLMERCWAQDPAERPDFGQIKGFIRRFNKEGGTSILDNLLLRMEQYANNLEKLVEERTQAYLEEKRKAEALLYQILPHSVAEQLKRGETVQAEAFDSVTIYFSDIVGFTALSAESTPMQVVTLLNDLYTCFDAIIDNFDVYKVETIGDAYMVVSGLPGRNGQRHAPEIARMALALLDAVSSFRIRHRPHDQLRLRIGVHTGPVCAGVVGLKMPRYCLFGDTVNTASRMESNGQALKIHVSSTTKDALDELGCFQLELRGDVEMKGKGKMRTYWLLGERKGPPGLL
Test: cell-based or functional assay
Numbered stars: 1 amine (or outer) side, 2 acyl side, 3 side chain; on linkers, the order of the positions; unused ones are H or OH. Square brackets hold non-standard residues; d marks the D form. Ends that are not written are not given here. * marks the point of attachment. abu(pip) = (R)-2-amino-4-(piperidin-1-yl)butanoic acid, O=C([C@@H](CCN1CCCCC1)N[*:1])[*:2]; 5119 = (1R,2R)-ethyl 2-aminocyclohexanecarboxylate, CCOC(=O)[C@@H]1CCCC[C@H]1N*; Tap(Ap) = 4-(3-amino-propylamino)-pyrrolidine-2-carboxylic acid; Sni = (S)-nipecotic acid, O=C([C@H]1CCCN([*:1])C1)[*:2]; Phe(3-Cl) = N[C@@H](Cc1cccc(Cl)c1)C(=O)O; Dodecenoyl(5Z) = CCCCCC/C=C\CCCC(=O)*; Hyp = O=C(O)[C@@H]1C[C@@H](O)CN1; tBuAla = CC(C)(C)C[C@H](N)C(=O)O; Dap(Me2) = CN(C)C[C@H](N)C(=O)O; pS = N[C@@H](COP(=O)(O)O)C(=O)O; NMeL = CN[C@@H](CC(C)C)C(=O)O; AR‑201‑68 = not defined here; orn(Me2) = not defined here; Octanoyl = CCCCCCCC(=O)*; Api = NC1(C(=O)O)CCNCC1; dAze = O=C(O)[C@H]1CCN1; Che = not defined here; Nbt = 4-butyl-thiazole; Oct = not defined here; ala = not defined here; leu = not defined here; Occ = octanoic acid
Listing of entries alongside the reported EC50 group, cGMP in GTM-3 cells.
outcome.measure: EC50 group, cGMP in GTM-3 cells

binder: Octanoyl-[dAze]F[dR]L[Hyp][NMeL]DRI-NH2 [JAL-1274]
outcome.measure: EC50 group, cGMP in GTM-3 cells
value.observed: ≤ 5 µM
--
binder: Octanoyl-[Sni]FLL[Hyp][NMeL][pS]R[Che] (not fully specified (some residues); printed as Occ-Sni-Phe-leu-Leu-Hyp-Nml-Pse-Arg-Che; reading uncertain) [JAL-1917]
outcome.measure: EC50 group, cGMP in GTM-3 cells
value.observed: ≤ 15 µM
--
binder: {Dodecenoyl(5Z)}-FRL[Hyp][NMeL]DRI-NH2 (not fully specified (some residues); printed as 6015-Phe-arg-Leu-Hyp-Nml-Asp-Arg-Ile-NH2) [JAL-1238]
outcome.measure: EC50 group, cGMP in GTM-3 cells
value.observed: ≤ 5 µM
--
binder: Octanoyl-[Sni]F[dL]L[Tap(Ap)][NMeL]DRI-NH2 [JAL-1372]
outcome.measure: EC50 group, cGMP in GTM-3 cells
value.observed: ≤ 1 µM
--
binder: Octanoyl-[ala][ala]FGLKLDR[5119] (reading uncertain; also: printed as Occ-ala-ala-Phe-Gly-Leu-Lys-Leu-Asp-Arg-5119) [JAL-0826]
outcome.measure: EC50 group, cGMP in GTM-3 cells
value.observed: ≤ 5 µM
--
binder: Octanoyl-[Sni]F[dK](Me2)L[Hyp][NMeL]VRI-NH2 [JAL-1783]
outcome.measure: EC50 group, cGMP in GTM-3 cells
value.observed: ≤ 15 µM
--
binder: Octanoyl-[Sni]FLL[Hyp][NMeL]DPI-NH2 (also: lower-case leu: meaning not given here) [JAL-1436]
outcome.measure: EC50 group, cGMP in GTM-3 cells
value.observed: ≤ 5 µM
--
binder: XXFXLXXDRI (Occ-Sni-Phe-dap(Me2)-Leu-Hyp-Nml-Asp-Arg-Ile-NH2) [JAL-1287]
outcome.measure: EC50 group, cGMP in GTM-3 cells
value.observed: ≤ 1 µM
--
binder: [AR‑201‑68]F[dR]L[Hyp][NMeL]DRI-NH2 (reading uncertain; also: printed as (AR-201-68)-Phe-arg-Leu-Hyp-Nml-Asp-Arg-Ile-NH2) [JAL-1381]
outcome.measure: EC50 group, cGMP in GTM-3 cells
value.observed: ≤ 5 µM
--
binder: Nbt-[Sni]F[dL]L[Hyp][NMeL]DRI-NH2 [JAL-1383]
outcome.measure: EC50 group, cGMP in GTM-3 cells
value.observed: ≤ 5 µM
--
binder: Octanoyl-AFRL[Hyp][tBuAla]DRI-NH2 (not fully specified (some residues); printed as Occ-ala-Phe-arg-Leu-Hyp-Npg-Asp-Arg-Ile-NH2) [JAL-1225]
outcome.measure: EC50 group, cGMP in GTM-3 cells
value.observed: ≤ 1 µM
--
binder: [Oct][Sni]F[orn(Me2)]L[Hyp][NMeL]VR[Che] (reading uncertain; also: printed as Oct-Sni-Phe-orn(Me2)-Leu-Hyp-Nml-Val-Arg-Che) [JAL-1851]
outcome.measure: EC50 group, cGMP in GTM-3 cells
value.observed: ≤ 5 µM
--
binder: [Oct][Sni]F[leu]L[Hyp][NMeL]VR[Che] (reading uncertain; also: printed as Oct-Sni-Phe-leu-Leu-Hyp-Nml-Val-Arg-Che) [JAL-1848]
outcome.measure: EC50 group, cGMP in GTM-3 cells
value.observed: ≤ 5 µM
--
binder: Octanoyl-[dA]F[dL][Dap(Me2)][Hyp][NMeL]DRI-NH2 [JAL-1368]
outcome.measure: EC50 group, cGMP in GTM-3 cells
value.observed: ≤ 5 µM
--
binder: [Occ][Sni]F[abu(pip)]L[Hyp][NMeL]DRI-NH2 [JAL-1879]
outcome.measure: EC50 group, cGMP in GTM-3 cells
value.observed: ≤ 5 µM
--
binder: [Occ][Sni]F[Api]L[Hyp][NMeL]DRI-NH2 [JAL-1555]
outcome.measure: EC50 group, cGMP in GTM-3 cells
value.observed: ≤ 1 µM
--
binder: Octanoyl-[dA][dA]FGLKLDRI-NH2 (not fully specified (some residues); printed as Occ-ala-ala-Phe-Gly-Leu-Lys-leu-Asp-Arg-Ile-NH2) [JAL-0769]
outcome.measure: EC50 group, cGMP in GTM-3 cells
value.observed: ≤ 15 µM
--
binder: [Occ][dA][Phe(3-Cl)]GLPLDRI-NH2 [JAL-0946]
outcome.measure: EC50 group, cGMP in GTM-3 cells
value.observed: ≤ 15 µM
--
binder: Octanoyl-[Sni]F[dL]L[Hyp][NMeL]DRI-NH2 [JAL-1302]
outcome.measure: EC50 group, cGMP in GTM-3 cells
value.observed: ≤ 1 µM
